assay: MRT in Sprague-Dawley rat at 30 mg/kg, ig administered as single dose by LC-MS/MS analysis; assay type: ADME, organism-based; conditions: in vivo, po
experimental.endpoint: MRT

Q) I am curious: what MRT value has been reported for Cc1cc2c(NS(C)(=O)=O)cccc2n1-c1nc2c(c(NCc3ccccc3)n1)COCC2 ?
A) 7.08 h

* * *

target: Transitional endoplasmic reticulum ATPase (Homo sapiens); experiment: Inhibition of human p97 using ATP as substrate after 60 mins by ADP-Glo assay; conditions: read-out: IC50
Sequence (P55072 whole entry): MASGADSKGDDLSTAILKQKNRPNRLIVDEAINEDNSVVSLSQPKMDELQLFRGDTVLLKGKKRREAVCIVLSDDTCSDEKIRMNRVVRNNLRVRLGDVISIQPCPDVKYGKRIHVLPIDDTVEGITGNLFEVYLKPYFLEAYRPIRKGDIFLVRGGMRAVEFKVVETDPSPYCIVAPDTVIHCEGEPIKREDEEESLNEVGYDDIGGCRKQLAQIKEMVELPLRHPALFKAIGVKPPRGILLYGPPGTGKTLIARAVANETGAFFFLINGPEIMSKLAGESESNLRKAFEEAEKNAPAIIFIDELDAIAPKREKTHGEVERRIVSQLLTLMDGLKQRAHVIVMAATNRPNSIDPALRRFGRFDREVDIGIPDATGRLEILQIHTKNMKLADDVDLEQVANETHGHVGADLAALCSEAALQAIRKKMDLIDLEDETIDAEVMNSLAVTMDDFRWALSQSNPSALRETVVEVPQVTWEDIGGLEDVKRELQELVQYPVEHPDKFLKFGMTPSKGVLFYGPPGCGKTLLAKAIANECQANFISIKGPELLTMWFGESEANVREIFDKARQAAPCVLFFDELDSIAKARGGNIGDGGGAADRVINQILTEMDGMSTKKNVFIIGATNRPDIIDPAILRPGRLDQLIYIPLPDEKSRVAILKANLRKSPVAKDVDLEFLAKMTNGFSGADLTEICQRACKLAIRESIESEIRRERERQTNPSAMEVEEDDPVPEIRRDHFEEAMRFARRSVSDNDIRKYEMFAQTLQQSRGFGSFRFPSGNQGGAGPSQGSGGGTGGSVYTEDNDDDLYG
Entries and their IC50
Your answer should be a plain number; it is taken to be in nM.

Cc1cc2c(C(N)=O)cccc2n1-c1nccc(NCc2ccccc2)n1: 161
CC(=O)Nc1cccc2c1ccn2-c1nc2c(c(NCc3ccccc3)n1)COCC2: 922
Cc1cc2c(C(N)=O)cccc2n1-c1nc2c(c(NCc3ccccc3)n1)CCCCCC2: 120
Cc1cc2c(NC(=O)/C=C/c3ccccc3)cccc2n1-c1nc2c(c(NCc3ccccc3)n1)COCC2: 447
Cc1cc2c(NS(=O)(=O)c3ccccc3)cccc2n1-c1nc2c(c(NCc3ccccc3)n1)COCC2: 135

Q) I am curious: what IC50 value has been reported for C=CC(=O)Nc1cccc2c1cc(C)n2-c1nc2c(c(NCc3ccncc3)n1)COCC2 ?
A) 5100

Q) I am curious: what IC50 value has been reported for CC(=O)Nc1cccc2c1cc(C)n2-c1nc2c(c(NCc3ccccc3)n1)COCC2 ?
A) 129
